molecular target: Poly [ADP-ribose] polymerase 2 (Homo sapiens, UniProt Q9UGN5); experiment: Inhibition of human PARP2 using NAD+ as substrate at 5 nM incubated for 1 hr by ELISA relative to control
Sequence (Q9UGN5 whole entry): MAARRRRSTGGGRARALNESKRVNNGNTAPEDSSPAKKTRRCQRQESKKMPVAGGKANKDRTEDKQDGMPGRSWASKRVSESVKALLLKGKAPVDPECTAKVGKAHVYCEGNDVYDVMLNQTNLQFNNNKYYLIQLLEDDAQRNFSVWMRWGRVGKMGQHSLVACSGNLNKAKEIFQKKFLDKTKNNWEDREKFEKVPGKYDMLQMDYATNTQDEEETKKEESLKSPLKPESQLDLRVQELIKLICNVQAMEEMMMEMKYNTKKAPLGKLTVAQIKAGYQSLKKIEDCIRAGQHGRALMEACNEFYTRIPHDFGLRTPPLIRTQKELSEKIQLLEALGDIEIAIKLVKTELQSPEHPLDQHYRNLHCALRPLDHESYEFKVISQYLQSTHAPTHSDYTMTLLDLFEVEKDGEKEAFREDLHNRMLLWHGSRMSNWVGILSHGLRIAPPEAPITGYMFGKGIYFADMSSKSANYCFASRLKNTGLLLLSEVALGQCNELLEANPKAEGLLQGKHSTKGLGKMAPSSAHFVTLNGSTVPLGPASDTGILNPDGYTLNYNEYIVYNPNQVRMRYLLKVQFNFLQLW
Kindly note that classification relies on inhibition with these boundaries: class 0 (below 30%), class 1 (30% to below 40%), class 2 (40% or more)

Take a look at these entries with their results.
>>> df
                                   compound                       experimental_target  discrete_label
0  C[C@@H]1CN(Cc2cccc(-c3[nH]c4cc(F)cc5c4c3CCNC5=O)c2)CCN1C(=O)OC(C)(C)C  Poly [ADP-ribose] polymerase 2 (Homo sapiens, UniProt Q9UGN5)         class 2
1  NC1CCCN(Cc2ccc(-c3[nH]c4cc(F)cc5c4c3CCNC5=O)cc2)C1 (centres undefined)  Poly [ADP-ribose] polymerase 2 (Homo sapiens, UniProt Q9UGN5)         class 1
2  O=C1NCCc2c(-c3ccc(CN4CCN(CCO)CC4)cc3)[nH]c3cc(F)cc1c23  Poly [ADP-ribose] polymerase 2 (Homo sapiens, UniProt Q9UGN5)         class 0
3  O=Cc1ccc(-c2[nH]c3cc(F)cc4c3c2CCNC4=O)cc1  Poly [ADP-ribose] polymerase 2 (Homo sapiens, UniProt Q9UGN5)         class 2

State the band of O=C1NCCc2c(-c3ccc(CN4CCCC(F)(F)C4)cc3)[nH]c3cc(F)cc1c23
class 0

State the band of CC1(N)CCN(Cc2cccc(-c3[nH]c4cc(F)cc5c4c3CCNC5=O)c2)CC1
class 0

State the band of NC1CCN(Cc2ccc(-c3[nH]c4cc(F)cc5c4c3CCNC5=O)cc2)CC1
class 2

State the band of CCN(CC)Cc1ccc(-c2[nH]c3cc(F)cc4c3c2CCNC4=O)cc1
class 1

State the band of CC(C)(C)c1ccc(-c2[nH]c3cc(F)cc4c3c2CCNC4=O)cc1
class 2

State the band of CC1(N)CCN(Cc2ccc(-c3[nH]c4cc(F)cc5c4c3CCNC5=O)cc2)CC1
class 2

====

Quick reference: inhibition of the listed items.
biological target: Poly [ADP-ribose] polymerase 2 (Homo sapiens); assay: Inhibition of human PARP2 using NAD+ as substrate at 5 nM incubated for 1 hr by ELISA relative to control

Here are 2 compounds together with their reported answers.
                                   compound                       experimental_target  meas_value
0  CC(C)(C)OC(=O)NC1CCCN(Cc2ccc(-c3[nH]c4cc(F)cc5c4c3CCNC5=O)cc2)C1 (stereo not given)  Poly [ADP-ribose] polymerase 2 (Homo sapiens)       34.8%
1  O=C1NCCc2c(-c3ccc(OCc4ccccc4)cc3)[nH]c3cc(F)cc1c23  Poly [ADP-ribose] polymerase 2 (Homo sapiens)       36.4%

Which measured inhibition value corresponds to O=C1NCCc2c(-c3ccc(CN4CCn5c(nnc5C(F)(F)F)C4)cc3)[nH]c3cc(F)cc1c23 ?
23.5%

Which measured inhibition value corresponds to CC1(NC(=O)OC(C)(C)C)CCN(Cc2ccc(-c3[nH]c4cc(F)cc5c4c3CCNC5=O)cc2)CC1 ?
40.5%

Which measured inhibition value corresponds to O=C1NCCc2c(-c3ccc(N4CCNCC4)cc3)[nH]c3cc(F)cc1c23 ?
55.8%
